Experiment: soluble fraction after stress (log2 fold change); higher = more stays soluble; pooled small domains, quantitative proteomics
Conditions: stress: pH 4
Could you please report measured soluble fraction (log2) for the items listed next?
Provide a numeric answer; units are not to be included.

Please supply the value of reported soluble fraction (log2) for the item "HMNLDPHVVGHRLRDLRTRRDLTLADVAAETDISVSTLSRLESGSRRATLELLVPLARTYRVTLDELVDA" -0.353

Please supply the value of reported soluble fraction (log2) for the item "HMIPPGTITIEGAITKVPVFLDGKQIGTVPLTKEDVEPGKYRIRVLGVGRVITIDPGEKENVLFSGEDLGL" -0.401

Please supply the value of reported soluble fraction (log2) for the item "HMSGPMVPNVVGLSEEMARALLSDYSITIKHAHDGVIPKDRVASQLPLATTHAKVGSSVVLTIS" 0.238

Please supply the value of reported soluble fraction (log2) for the item "HMDSALKDDLNAFVKKLDVESQTLFMRRYFLGESVSSLASRFEMSEDNVGVKLFRIRAKLKKYLTGKGYD" -0.445

###

Test: soluble fraction after stress (log2 fold change); higher = more stays soluble; pooled small domains, quantitative proteomics
Details: stress: pH 4
Hi, to clarify the labels: met covers soluble fraction (log2) from -0.2 upward, not met covers anything below -0.2.

Decide: soluble fraction (log2) of "HMQAGILTDTAAKNARIKKIDTERLEAELDQKRIVIVTGFQGVDRNQNITTLGRGGSDTSAVALAAAVSIT" >= -0.2? met

Decide: soluble fraction (log2) of "HMQDTVKNVFGAFTIFTDKPFAIGDTINVNGLEGTVVDVGMRSTQILGYDRRITSYPNYKITDSSIVNISS" >= -0.2? not met

Decide: soluble fraction (log2) of "HMARKTIFHSLLGELEQRIGRLPAGTILPAEQALADEYGVSKPTLRRALAELAEHGLITKENGIGSVVI" >= -0.2? met

Decide: soluble fraction (log2) of "HMGQLVVHQIKGEASRLDKFLVVNIPKYSRSVWREMINNGSVQVNGRVVKPHLLVKEGDIITWSS" >= -0.2? met

Decide: soluble fraction (log2) of "HMISQLRGKVLGTDRDALVIDVGGVGFRVSATAGARALAGQSGNEARLFTEMVVREDSIDLFGF" >= -0.2? not met

Decide: soluble fraction (log2) of "HMVTTLLIINVAGKVKNPGVYQLPPGSRVVDALEAAGQQLKGVDISDINLARVLVDGEQILIGSN" >= -0.2? not met

Decide: soluble fraction (log2) of "HMNKLKALREEQGLSMMEIAKQLNMPYTTYVNYEKGTREPNSEMLIKFSKFFNVTIDYLIGNSEQKN" >= -0.2? met

Decide: soluble fraction (log2) of "HMFDLKKIYGTILDETKSSLLLSTDDGREVQIIKTDGTEVLASGLGVYVEVAYRDETPDGYPIALTI" >= -0.2? not met

###

Experiment: soluble fraction after stress (log2 fold change); higher = more stays soluble; pooled small domains, quantitative proteomics
Conditions: stress: pH 4
Hi, to clarify the labels: label 1 covers soluble fraction (log2) from 0.01 upward, label 0 covers anything below 0.01.

Decide: soluble fraction (log2) of "HMWPTPRTWSALMNELNLYKENHGYANIVDIPSEKIRRMADGIIGEDMAVRYVAFLQSHASS" >= 0.01? label 0

Decide: soluble fraction (log2) of "HMQARSQQTIQTLFKAAAQILDKEGEAGLSTNKVAAAAGFSIGTLYQYFPSKEVLIQAMAAR" >= 0.01? label 1

Decide: soluble fraction (log2) of "HMDGIIIPDVSGKSYAEAVATLNEKGFKVEKGEDAGSSLAKDLVSYTNPAAGNRAKSGATISVFVSTGANA" >= 0.01? label 0

Decide: soluble fraction (log2) of "HMIGAKVLVNGQLHRDSYGEGPGQTESNATRLVNYINMKGSHPYHVTTLDGGWRGWVTADSVQV" >= 0.01? label 1

Decide: soluble fraction (log2) of "HMVTLYDGFLSELRKRIPRGAELTNTLVDMLYIEREAVYRRLRGEVPFTFIEVMTVSKELGISLDNLAQA" >= 0.01? label 0

Decide: soluble fraction (log2) of "HMATVTVPNLKGMTPSGAESALAELNLKGAVGDSVESNDVENGKVASQDQAAGSDAKEGDTITYHLSS" >= 0.01? label 0

Decide: soluble fraction (log2) of "HMNMTDVLVVNQTVRGGTQITESMLSVKKVDKSSLPDNYLKASLKDEVVGKYFDLGLTSGGVLTKDNISVS" >= 0.01? label 1

Decide: soluble fraction (log2) of "HMLLSTHVVVAKEDVQIGTRLQPAMLQVVDWPSASPLKNPLTSIEQATDRVVNMPLVKGEPISMSKLAAKG" >= 0.01? label 1

Decide: soluble fraction (log2) of "HMILKNVTSDLANKRLDKVASILFQTYSRTQIKKWILEGRVLVNGEISNPKDHVHENDEIEINPI" >= 0.01? label 1

Decide: soluble fraction (log2) of "HMTKEEFLDEIKKELGFMPYEEVIKAEKYFESYFNGSEADEKVIERFGSPKYAAQNYYRTHVAN" >= 0.01? label 1

Decide: soluble fraction (log2) of "HMRPNREKDMADLEKLAPFLLQMLTNYAQMTGDEKPLNAFITRFGYAAQIRDIQDFFMGPWHPA" >= 0.01? label 0

Decide: soluble fraction (log2) of "HMANDNFPLKLGSKGPRVLQLKTMLIQSLSNDALPKGRSSDAFDSELEALLSRNNLPTVIDETNFRVLTK" >= 0.01? label 1

Decide: soluble fraction (log2) of "HMGLDMSLEREQHRALREASQWYARLADEQVDSDAERAWRHWVAADEANQRAWQYIEAVSQRFDG" >= 0.01? label 0

Decide: soluble fraction (log2) of "HMGVKTDKYYYQMATETRVNKHYGLSNQYIATLISEYPRSPLIPNASILSKKNNADLALIDQSINQR" >= 0.01? label 1

Decide: soluble fraction (log2) of "HMKEGGGYGQLRLKEAAIQHAFDLQNALQFIAERGYQAHENTTLKEAANALNLKPIELLELLKSSQ" >= 0.01? label 0

Decide: soluble fraction (log2) of "HMAAVAPPVLERIASDLATRFAGTLSPETVDRYVRESYHLLAERAGITRYLPSLTARFAGDRLDA" >= 0.01? label 0

Decide: soluble fraction (log2) of "HMRVDDITDTILNVLKEQGGFISVTDKSSPETINKLFGVSKKTYKKAIGAIYRKKLIIIEDDGIRLNS" >= 0.01? label 0
